# target.of.assay: NLRP3 (Homo sapiens, UniProt Q96P20)
# Sequence (Q96P20 whole entry): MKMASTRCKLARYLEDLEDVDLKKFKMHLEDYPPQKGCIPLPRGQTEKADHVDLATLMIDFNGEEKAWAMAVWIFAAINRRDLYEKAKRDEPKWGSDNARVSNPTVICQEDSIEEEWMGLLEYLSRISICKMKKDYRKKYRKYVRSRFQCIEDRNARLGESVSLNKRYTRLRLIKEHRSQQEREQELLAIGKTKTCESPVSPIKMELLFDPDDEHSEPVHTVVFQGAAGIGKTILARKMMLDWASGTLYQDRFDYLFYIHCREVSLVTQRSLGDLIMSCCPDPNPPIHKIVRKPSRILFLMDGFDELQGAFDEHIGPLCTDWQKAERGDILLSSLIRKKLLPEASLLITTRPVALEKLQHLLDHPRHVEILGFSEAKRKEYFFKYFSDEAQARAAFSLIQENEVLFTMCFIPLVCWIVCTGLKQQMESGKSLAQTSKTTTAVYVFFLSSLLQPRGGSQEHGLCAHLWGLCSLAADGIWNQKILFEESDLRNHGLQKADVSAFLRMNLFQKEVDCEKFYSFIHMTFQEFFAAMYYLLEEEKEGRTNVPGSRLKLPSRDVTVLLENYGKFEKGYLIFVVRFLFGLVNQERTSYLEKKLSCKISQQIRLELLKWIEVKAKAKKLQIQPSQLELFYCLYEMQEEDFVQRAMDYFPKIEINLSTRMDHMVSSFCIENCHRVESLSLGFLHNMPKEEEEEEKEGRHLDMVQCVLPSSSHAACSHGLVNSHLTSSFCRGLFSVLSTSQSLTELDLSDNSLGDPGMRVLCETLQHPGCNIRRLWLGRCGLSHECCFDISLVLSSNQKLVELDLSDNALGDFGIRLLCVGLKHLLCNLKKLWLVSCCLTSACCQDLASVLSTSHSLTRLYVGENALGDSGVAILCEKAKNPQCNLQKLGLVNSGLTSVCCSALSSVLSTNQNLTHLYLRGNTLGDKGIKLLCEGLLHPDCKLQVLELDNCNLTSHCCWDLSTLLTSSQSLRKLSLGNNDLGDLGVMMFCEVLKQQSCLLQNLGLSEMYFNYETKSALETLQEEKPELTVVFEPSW
# assay.name: Human whole blood IL-1β release assay (LPS + nigericin, AlphaLisa)
# Type: cell-based
# Design: Human whole blood in Li-heparin tubes was obtained from healthy donors; from tissue; host or cells: human whole blood from healthy donors, LPS-primed, nigericin-stimulated
# condition.description: 1 ug/ml LPS, compound 3 hours, nigericin 10 μM 1 hr, IL-1β in supernatant
Label key: yes (1) means IC50 under 40 nM; no (0) means IC50 of 40 nM or more.

// known answers, use as guide
compound: CCN1CC[C@H]2CCN(c3nnc(-c4ccc(C#N)cc4O)c(C)n3)[C@H]2C1 (single isomer, unassigned)
label.value: yes (1)
//
compound: CCN1CCC2CCN(c3nnc(-c4ccc5c(c4O)CCO5)c(C)n3)C2C1 (single isomer, unassigned) [Example 1B]
label.value: no (0)
//
compound: Cc1nc(N2CCC3CCN(C)CC32)nnc1-c1ccc2c(c1O)CCO2 (single isomer, unassigned)
label.value: no (0)
//
compound: Cc1nc(N2CC[C@@H]3CCN(C)C[C@@H]32)nnc1-c1ccc2c(c1O)CCO2 (single isomer, unassigned)
label.value: yes (1)

Read the next record carefully.
Q: Given CCN1CCC2CCN(c3nnc(-c4ccc5c(c4O)CCO5)c(C)n3)C2C1 (single isomer, unassigned) [Example 1A] , is recorded IC50 strictly lower than 40 nM?
Ans: yes (1)
